These data points were gathered from patent US11440884B2.

Biological target: 5-HT2A receptor (Homo sapiens (Human))
Sequence (P28223 whole entry): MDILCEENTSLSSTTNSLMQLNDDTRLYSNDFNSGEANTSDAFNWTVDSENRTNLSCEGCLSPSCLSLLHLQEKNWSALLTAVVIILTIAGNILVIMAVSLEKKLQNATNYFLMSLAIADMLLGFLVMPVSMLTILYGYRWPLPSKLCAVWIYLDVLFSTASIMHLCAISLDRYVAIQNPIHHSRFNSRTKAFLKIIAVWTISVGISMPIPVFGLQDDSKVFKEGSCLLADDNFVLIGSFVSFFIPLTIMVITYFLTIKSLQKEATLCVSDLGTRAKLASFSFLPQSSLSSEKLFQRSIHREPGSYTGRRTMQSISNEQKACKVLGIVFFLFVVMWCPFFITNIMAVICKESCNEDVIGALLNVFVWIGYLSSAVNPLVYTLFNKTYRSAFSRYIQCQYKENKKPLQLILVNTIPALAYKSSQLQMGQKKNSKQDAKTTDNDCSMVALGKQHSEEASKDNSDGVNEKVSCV
Test: Receptor Selection and Amplification (R-SAT) functional antagonist assay;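 further: Read-out is β-galactosidase marker gene activity with ONPG substrate, measured after five days of growth in 96-well plates holding the test compound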
Conditions: R-SAT, transfected NIH3T3 cells; guidance: high affinity pKi≥8.4, moderate affinity pKi≥7.7
quantity_name: 5-HT2a pKi

CC(C)Oc1ccc(COC(=O)N(Cc2ccc(C(F)(F)F)cc2F)C2CCN(C)CC2)cc1.O=C(O)C(F)(F)F ... 8.4
CC(C)COc1ccc(CC(=O)N(Cc2ccc(F)cc2F)C2CCN(C)CC2)cc1.O=C(O)C(F)(F)F ... 8.2
COc1cc(CN(C(=O)OCc2ccc(OC(C)C)cc2)C2CCN(C)CC2)ccc1Cl.O=C(O)C(F)(F)F ... 6.8
CC(C)Oc1ccc(CC(=O)N(Cc2ccc(Cl)cc2Cl)C2CCN(C)CC2)cc1.O=C(O)C(F)(F)F ... 6.5
Cc1c(F)ccc(CN(C(=O)OCc2ccc(OC(C)C)cc2)C2CCN(C)CC2)c1F ... 10.0
CN1CCC(N(Cc2ccc(F)cc2F)C(=O)OCc2ccc(OC3CC3)cc2)CC1 ... 10.5
CC(C)COc1ccc(COC(=O)N(Cc2ccc(F)cc2O)C2CCN(C)CC2)cc1 ... 7.8
CC(C)COc1ccc(COC(=O)N(Cc2ccc(F)cc2Cl)C2CCN(C)CC2)cc1 ... 8.1
CC(C)Oc1ccc(COC(=O)N(Cc2ccc(F)cc2F)C2CCN(C)CC2)cc1 ... 9.9
CC(C)Oc1ccc(COC(=O)N(Cc2ccc(F)cc2F)C2CCN(CC(C)(C)C(=O)O)CC2)cc1 ... 8.5
CC(C)COc1ccc(CC(=O)N(Cc2ccc(F)cc2)C2CCN(C)CC2)cc1F.O=C(O)C(F)(F)F ... 8.6
CCN1CCC(N(Cc2ccc(F)cc2F)C(=O)OCc2ccc(OC(C)C)cc2)CC1 ... 9.4
COC(=O)C(C)(C)CN1CCC(N(Cc2ccc(F)cc2F)C(=O)OCc2ccc(OC(C)C)cc2)CC1 ... 8.0
CN1CCC(N(Cc2ccc(F)cc2F)C(=O)OCc2ccc(OCC(C)(C)O)cc2)CC1 ... 10.2
CC(C)Oc1ccc(COC(=O)N(Cc2ccc(Cl)cc2F)C2CCN(C)CC2)cc1 ... 9.3
CC(C)Oc1ccc(COC(=O)N(Cc2c(F)cc(Cl)cc2F)C2CCN(C)CC2)cc1 ... 9.1
CC(C)COc1ccc(CC(=O)N(Cc2ccc(F)cc2OC(F)(F)F)C2CCN(C)CC2)cc1.O=C(O)C(F)(F)F ... 6.7
CC(C)Oc1ccc(C(OC(=O)N(Cc2ccc(F)cc2)C2CCN(C)CC2)C(F)(F)F)cc1 (stereo not shown) ... 7.5
Cc1ccc(CN(C(=O)OCc2ccc(OC(C)C)cc2)C2CCN(C)CC2)c(F)c1 ... 7.3
CC(C)COc1ccc(COC(=O)N(Cc2ccc(F)cc2)C2CCN(C)CC2)cc1 ... 9.9
CC(C)Oc1ccc(COC(=O)N(Cc2cc(F)c(F)cc2F)C2CCN(C)CC2)cc1 ... 7.8
CC(C)Oc1ccc(COC(=O)N(Cc2c(F)ccc(F)c2F)C2CCN(C)CC2)cc1 ... 8.4
CCOc1ccc(COC(=O)N(Cc2ccc(F)cc2F)C2CCN(C)CC2)cc1 ... 9.7
CC(C)Oc1ccc(CC(=O)N(Cc2ccc(F)cc2Cl)C2CCN(C)CC2)cc1.O=C(O)C(F)(F)F ... 6.5
COc1ccc(CN(C(=O)Cc2ccc(OCC(C)C)cc2)C2CCN(C)CC2)c(Cl)c1.O=C(O)C(F)(F)F ... 6.9
